Value source: PubChem BioAssay (NCI)

# Tested on: ACHN renal
# PROCEDURE_DETAILS: NCI-60 one-dose screen, 48 h (100 = growth as untreated, 0 = no growth, -100 = all killed)
# TEST_PARAMETERS: 10 µM unless noted
Compounds without any hit were thinned out: in the full panel of roughly 83,000, 20% have a hit.
Mark y only when growth stays strictly below 90%. Values equal to the cut-off are n.

>  <MOLECULE>
CC(C)c1ccc(Nc2n[nH]c(=S)s2)cc1

>  <TESTED_TARGET>
ACHN renal

>  <CAT>
n

$$$$

Q: Find out if reported growth for COC(=O)c1ccc(=O)c2nc3/c(=C/O)c(O)cc(=O)c3[nH]c12 is less than 90%
Result: y
